Tested on: HeLa
testDetails: Survival of human HeLa cells at 100 uM under deem light after 96 hrs by MTT assay relative to control
Format: functional
recordedConditions: read-out: Survival
Entries whose viability at 100 µM is below 40% take True; entries at or above 40% take False.

As a guide, the following entries are already answered.
| molecule | tgt | className |
| --- | --- | --- |
| CCCOC(C)C1=C(C)c2cc3[nH]c(cc4nc(cc5[nH]c(cc1n2)c(C)c5CCC(=O)NCCO)C(CCC(=O)NCCO)=C4C)c(C)c3C(C)OCCC (stereo not given) [HEMATOPORPHYRIN PROPYLETHER ETHANOLAMIDE] | HeLa | True |
| COc1cccc2c1C(=O)c1c(O)c3c(c(O)c1C2=O)C[C@@](O)(C(=O)CO)C[C@@H]3O[C@H]1C[C@H](N)[C@H](O)[C@H](C)O1 | HeLa | True |
| CC1=C(CCC(=O)O)c2cc3nc(cc4[nH]c(cc5[nH]c(cc1n2)c(C)c5C(C)O)c(C)c4C(C)O)C(C)=C3CCC(=O)O (stereo not given) | HeLa | False |
| C=Cc1c(C)c2cc3nc(c4c5[nH]c(cc6nc(cc1[nH]2)C(C)=C6CC)c(C)c5C(=O)[C@@H]4C(=O)OC)[C@@H](CCC(=O)OC)[C@@H]3C [METHYL PHEOPHORBIDE A] | HeLa | True |

Now consider the entry below.
Req: Hi there! Is viability at 100 µM for C=Cc1c(C)c2cc3nc(c(CC(=O)OC)c4[nH]c(cc5nc(cc1[nH]2)C(C)=C5CC)c(C)c4C(=O)NCCO)C(CCC(=O)OC)C3C (stereo not given) [PHEOPHORBIDE A ETHANOLAMIDE] below 40%, do you know?
Resp: True

* * *

Field: viability at 0.1 µM. Provide a value for each of the compounds that follow.
Tested on: HeLa
testDetails: Survival of human HeLa cells at 0.1 uM under deem light after 96 hrs by MTT assay relative to control
Format: functional
recordedConditions: read-out: Survival
Give bare numbers, in %.

| compound | viability at 0.1 µM / % |
| --- | --- |
| CCCOC(C)C1=C(C)c2cc3[nH]c(cc4nc(cc5[nH]c(cc1n2)c(C)c5CCC(=O)NCCO)C(CCC(=O)NCCO)=C4C)c(C)c3C(C)OCCC (stereo not given) [HEMATOPORPHYRIN PROPYLETHER ETHANOLAMIDE] | 99.6 |

Go through the items and report each one's viability at 0.1 µM.
1. CC1=C(CCC(=O)O)c2cc3nc(cc4[nH]c(cc5[nH]c(cc1n2)c(C)c5C(C)O)c(C)c4C(C)O)C(C)=C3CCC(=O)O (stereo not given) [HAEMAPORPHYRIN]
2. C=Cc1c(C)c2cc3nc(c4c5[nH]c(cc6nc(cc1[nH]2)C(C)=C6CC)c(C)c5C(=O)[C@@H]4C(=O)OC)[C@@H](CCC(=O)OC)[C@@H]3C [METHYL PHEOPHORBIDE A]
3. C=Cc1c(C)c2cc3nc(c(CC(=O)OC)c4[nH]c(cc5nc(cc1[nH]2)C(C)=C5CC)c(C)c4C(=O)NCCO)C(CCC(=O)OC)C3C (stereo not given) [PHEOPHORBIDE A ETHANOLAMIDE]
4. COc1cccc2c1C(=O)c1c(O)c3c(c(O)c1C2=O)C[C@@](O)(C(=O)CO)C[C@@H]3O[C@H]1C[C@H](N)[C@H](O)[C@H](C)O1 [DOXORUBICIN]

Resp:
1. 85.8
2. 89.1
3. 126
4. 81.4

Reference source: ChEMBL document CHEMBL1141575
